Assay: chemical genetic growth profiling, strain panel (AID 1159580);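 note: tested at 20 µM; growth read once vehicle control cultures reached saturation at 30 °C; 1 = growth at the plate median or of vehicle wells; lower values mean less growth of the strain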
Conditions: S. cerevisiae deletion strains, growth OD, locus YOL136C, strain PFK27, stronger effect = lower value
Out of some 5,500 compounds screened, about 2,000 (36%) were called active. Inconclusive results (about 18%) are left out. Some of the results follow.
Hi there, I'd appreciate the recorded normalized growth for every entry that follows.
Give bare numbers.

(Q) Dear colleague, I am looking for the recorded normalized growth of the following compound: Cc1nn(Cc2nnc(SCc3cccc(C(F)(F)F)c3)o2)c(C)c1Br
(A) 0.881

(Q) Dear colleague, I am looking for the recorded normalized growth of the following compound: COc1cc(CC/C(C)=N/O)ccc1OCc1ccc(Cl)cc1Cl
(A) 0.921

We now examine a further compound.
(Q) Dear colleague, I am looking for the recorded normalized growth of the following compound: CC1(C)c2ccccc2N(CCC(N)=O)C12C=Cc1c(ccc3ccccc13)O2 (stereo not drawn)
(A) 0.907

* * *

Experiment: chemical genetic growth profiling, strain panel (AID 1159580)
Details: S. cerevisiae deletion strains, growth OD, locus YDR195W, strain ref2
The campaign covered roughly 5,500 compounds. About 2,000 (36%) were called active. Roughly 18% stayed inconclusive and do not appear here. This is one part of the list.
Outcome measure: normalized growth
One number for each entry.

(Q) Dear colleague, I am looking for the recorded normalized growth of the following compound: COc1cc(OC)c(OC)cc1C=O
(A) 1.01

Give me normalized growth for each of these compounds, listed below.
1. N[C@H](Cc1cc(I)c(Oc2ccc(O)c(I)c2)c(I)c1)C(=O)O
2. C[C@@H]1O[C@@H](O[C@H]2C[C@@H](O)[C@]3(CO)C4C(CC[C@]3(O)C2)[C@@]2(O)CC[C@H](C3=CC(=O)OC3)[C@@]2(C)C[C@H]4O)[C@H](O)[C@H](O)[C@H]1O (stereo partly drawn)

(A)
1: 1; 2: 1.01

* * *

Experiment: chemical genetic growth profiling, strain panel (AID 1159580)
Details: S. cerevisiae deletion strains, growth OD, locus YDR363W, strain ESC2, stronger effect = lower value
Out of some 5,500 compounds screened, about 2,000 (36%) were called active. Inconclusive results (about 18%) are left out. The list shows a part of the results.
Outcome measure: normalized growth
Give bare numbers.

Example cases with answers are listed next.
(Q) Dear colleague, I am looking for the recorded normalized growth of the following molecule: N#Cc1cc2nc(O)c(O)nc2cc1[N+](=O)[O-]
(A) 1.01

(Q) Dear colleague, I am looking for the recorded normalized growth of the following molecule: Cc1nc2ccccn2c(=O)c1CCN1CCC(C(=O)c2ccc(F)cc2)CC1
(A) 1.01

(Q) Dear colleague, I am looking for the recorded normalized growth of the following molecule: O=[N+]([O-])c1cccc2cn[nH]c12
(A) 1.01

(Q) Dear colleague, I am looking for the recorded normalized growth of the following molecule: C[C@H](N)CN1CCc2ccc(Br)cc21
(A) 1.01

(Q) Dear colleague, I am looking for the recorded normalized growth of the following molecule: CCCC(CCC)C(=O)O
(A) 0.994

(Q) Dear colleague, I am looking for the recorded normalized growth of the following molecule: CC(CN1c2ccccc2Sc2ccccc21)N(C)C (centres undefined)
(A) 0.993

Give me normalized growth for each of these molecules, listed below.
1. CCO/C([O-])=N/c1c[n+](N2CCOCC2)no1
2. CCn1cnc2c(Nc3cccc(Cl)c3)nc(N[C@@H]3CCCC[C@@H]3N)nc21
3. CCn1c(=O)c2[nH]c(-c3ccccc3)nc2n(CC)c1=O

(A)
1. 1.02
2. 0.993
3. 1.01

* * *

Assay: chemical genetic growth profiling, strain panel (AID 1159580)
Settings: S. cerevisiae deletion strains, growth OD, locus YLR371W, strain rom2
Out of some 5,500 compounds screened, about 2,000 (36%) were called active. Roughly 18% stayed inconclusive and do not appear here. Cut-off read from the data, not from the text of the source: active = normalized growth mostly below about 0.91 (no sharp cut-off); inconclusive = no clear call, values can overlap the other calls; inactive = mostly above about 0.92. The list shows a part of the results.
A correct response names exactly one class from active, inactive

Known results for molecules:
(Q) Which outcome did this test record for the molecule C[C@H](CCC(=O)O)[C@H]1CCC2C3C(CC[C@@]21C)[C@@]1(C)CC[C@@H](O)C[C@H]1C[C@H]3O (stereo not given in full) ?
(A) inactive

(Q) Which outcome did this test record for the molecule CCCC(CCC)C(=O)O ?
(A) inactive

(Q) Which outcome did this test record for the molecule Cc1cc(C)cc(OCC2CNC(=O)O2)c1 (stereo not given) ?
(A) inactive

New cases:
(Q) Which outcome did this test record for the molecule COc1ccc(C(=O)N2CCCC2=O)cc1 ?
(A) inactive

(Q) Which outcome did this test record for the molecule O=C(Nc1ccccc1)Nc1ccccc1 ?
(A) inactive

(Q) Which outcome did this test record for the molecule Cc1cc(O)c(C=O)c2c1C(=O)Oc1c(COC(=O)/C=C/C(=O)O)c(O)c(C(=O)O)c(C)c1O2 ?
(A) inactive

* * *

Assay: chemical genetic growth profiling, strain panel (AID 1159580);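 note: tested at 20 µM; growth read once vehicle control cultures reached saturation at 30 °C; 1 = growth at the plate median or of vehicle wells; lower values mean less growth of the strain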
Settings: S. cerevisiae deletion strains, growth OD, locus YER016W, strain bim1, stronger effect = lower value
Screen size: about 5,500 compounds; about 2,000 (36%) were called active. Not shown: some 18% with an inconclusive outcome. The list shows a part of the results.
Outcome measure: normalized growth
One number for each entry.

Example cases with answers are listed next.
(Q) Dear colleague, I am looking for the recorded normalized growth of the following compound: C[C@H](N)[C@H](O)c1cccc(O)c1
(A) 1.01

(Q) Dear colleague, I am looking for the recorded normalized growth of the following compound: O=c1cc(-c2cc(O)c(O)c(O)c2)oc2cc(O)cc(O)c12
(A) 1

(Q) Dear colleague, I am looking for the recorded normalized growth of the following compound: O=C(Nc1ccccc1)Nc1ccccc1
(A) 0.962

(Q) Dear colleague, I am looking for the recorded normalized growth of the following compound: NC(N)=O
(A) 0.984

(Q) Dear colleague, I am looking for the recorded normalized growth of the following compound: CC(CCC(=O)O)[C@H]1CCC2C3CC[C@@H]4C[C@H](O)CC[C@]4(C)C3CC[C@@]21C (stereo partly drawn)
(A) 1

Give me normalized growth for each of these compounds, listed below.
1. O=[N+]([O-])c1cccc2cn[nH]c12
2. O=c1cc(-c2ccccc2)oc2cc(O)c(O)cc12
3. O=[N+]([O-])c1cccc2c(Br)[nH]nc12

(A)
1. 1
2. 0.99
3. 0.998

* * *

Experiment: chemical genetic growth profiling, strain panel (AID 1159580);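 note: tested at 20 µM; growth read once vehicle control cultures reached saturation at 30 °C; 1 = growth at the plate median or of vehicle wells; lower values mean less growth of the strain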
Conditions: S. cerevisiae deletion strains, growth OD, locus YNR052C, strain pop2, stronger effect = lower value
Out of some 5,500 compounds screened, about 2,000 (36%) were called active. About 18% were inconclusive and are not listed. The list shows a part of the results.
Outcome measure: normalized growth

(Q) Dear colleague, I am looking for the recorded normalized growth of the following molecule: CC(CCC(=O)O)[C@H]1CCC2C3CC[C@@H]4C[C@H](O)CC[C@]4(C)C3C[C@H](O)[C@@]21C (stereo partly drawn)
(A) 1.03 (inactive)

(Q) Dear colleague, I am looking for the recorded normalized growth of the following molecule: COc1cc(OC)c(OC)cc1C=O
(A) 0.995 (inactive)

New cases:
(Q) Dear colleague, I am looking for the recorded normalized growth of the following molecule: Nc1ccn(C2O[C@H](CO)[C@@H](O)[C@H]2O)c(=O)n1 (stereo partly drawn)
(A) 1.01 (inactive)

* * *

Hi there, I'd appreciate the recorded normalized growth for every entry that follows.
Test: chemical genetic growth profiling, strain panel (AID 1159580);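 note: tested at 20 µM; growth read once vehicle control cultures reached saturation at 30 °C; 1 = growth at the plate median or of vehicle wells; lower values mean less growth of the strain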
Conditions: S. cerevisiae deletion strains, growth OD, locus YNL209W, strain ssb2, stronger effect = lower value
The campaign covered roughly 5,500 compounds. About 2,000 (36%) were called active. Not shown: some 18% with an inconclusive outcome. The list shows a part of the results.
Give bare numbers.

Example cases with answers are listed next.
(Q) Dear colleague, I am looking for the recorded normalized growth of the following compound: CCCC(C(=O)OCCN(CC)CC)(c1ccccc1)c1ccccc1
(A) 1.02

(Q) Dear colleague, I am looking for the recorded normalized growth of the following compound: CC(CCC(=O)O)[C@H]1CCC2C3CC[C@@H]4C[C@H](O)CC[C@]4(C)C3CC[C@@]21C (stereo not given in full)
(A) 0.993

(Q) Dear colleague, I am looking for the recorded normalized growth of the following compound: CC(CCC(=O)O)[C@H]1CCC2C3CC[C@@H]4C[C@H](O)CC[C@]4(C)C3C[C@H](O)[C@@]21C (stereo not given in full)
(A) 0.994

(Q) Dear colleague, I am looking for the recorded normalized growth of the following compound: O=C(O)CCC(=O)Nc1ccc(S(=O)(=O)Nc2nccs2)cc1
(A) 1

(Q) Dear colleague, I am looking for the recorded normalized growth of the following compound: CC12CC3CC(C)(C1)CC(N)(C3)C2
(A) 0.992

Give me normalized growth for each of these compounds, listed below.
1. CC[C@H](CCC(C)[C@H]1CCC2C3CCC4C[C@@H](O)CC[C@]4(C)C3CC[C@@]21C)C(C)C (stereo not given in full)
2. CC(=O)OCC(=O)[C@@]1(O)[C@H](OC(C)=O)CC2C3CCC4=CC(=O)C=C[C@]4(C)[C@@]3(F)[C@@H](O)C[C@@]21C (stereo not given in full)
3. C[C@@H]1CC2C3CCC4=CC(=O)C=C[C@]4(C)[C@@]3(F)[C@@H](O)C[C@]2(C)[C@H]1C(=O)CO (stereo not given in full)

(A)
1
0.986
1

Give me normalized growth for each of these compounds, listed below.
1. O=C(O)CCCOc1ccc(Cl)cc1Cl
2. Cc1ncc([N+](=O)[O-])n1CC(C)O (stereo not given)

(A)
[0.971, 0.987]

Value source: PubChem BioAssay AID1159580
